This collection of values is drawn from ChEMBL document CHEMBL1147334.

Tested on: Vero
Assay: Cytotoxicity against african green monkey Vero cells after 24 hrs measured per 5x10^5 cells by neutral red uptake assay
Type: cell-based
Settings: chlorocebus sabaeus
VALUE_TYPE: Activity (µg)
// units = µg; emit number, no label

Please look up its Activity: CO[C@H]1[C@H](O[C@H]2CC[C@@]3(C)[C@H]([C@H]2O)[C@H](O)C[C@H]2[C@@H]4[C@H](O)C[C@H]([C@H](C)CC[C@H](O)C(C)C)[C@@]4(C)CC[C@@H]23)OC[C@@H](O)[C@@H]1O [MONILOSIDE C]
3

Could you do the same for CO[C@@H]1[C@@H](O)[C@H](OCC[C@@H](CC[C@@H](C)[C@H]2[C@@H](O)[C@@H](O)[C@@H]3[C@]2(C)CC[C@@H]2[C@@]4(C)CC[C@H](O)[C@H](O)[C@@H]4[C@@H](O)C[C@]23O)C(C)C)OC[C@H]1O[C@@H]1OC[C@H](O)[C@H](O)[C@H]1O [MONILOSIDE E] , please?
10

----------
System: Vero
Assay: Cytotoxicity against african green monkey Vero cells after 24 hrs measured per 5x10^5 cells by neutral red uptake assay
Type: cell-based
Conditions: chlorocebus sabaeus
Would you mind telling me the reported Activity of each entry?

Please look up its Activity: CO[C@H]1[C@H](O[C@H]2CC[C@]3(C)C4=CC[C@]5(C)[C@@H]([C@H](C)CC[C@H](O)C(C)C)C[C@@H](O)[C@H]5C4=CC[C@H]3[C@H]2O)OC[C@@H](O)[C@@H]1O [MONILOSIDE B]
3 µg

Could you do the same for CO[C@H]1[C@H](O[C@H]2CC[C@@]3(C)[C@H]([C@H]2O)[C@H](O)C[C@]2(O)[C@@H]3CC[C@]3(C)[C@@H]([C@H](C)CC[C@H](O)C(C)C)C[C@@H](O)[C@H]32)OC[C@@H](O)[C@@H]1O [MONILOSIDE D] , please?
3 µg

Could you do the same for CO[C@@H]1[C@@H](O)[C@H](O[C@@H]2CO[C@@H](O[C@@H]3CO[C@@H](OCC[C@@H](CC[C@@H](C)[C@H]4[C@@H](O)[C@@H](O)[C@@H]5[C@]4(C)CC[C@@H]4[C@@]6(C)CC[C@H](O)[C@H](O)[C@@H]6[C@@H](O)C[C@]45O)C(C)C)[C@H](O)[C@H]3O)[C@H](O)[C@H]2O)OC[C@H]1O [MONILOSIDE I] , please?
1 µg

Could you do the same for CO[C@@H]1[C@@H](O)[C@H](O[C@@H]2CO[C@@H](O[C@@H]3CO[C@@H](OCC[C@@H](/C=C/[C@@H](C)[C@H]4[C@@H](O)[C@@H](O)[C@@H]5[C@]4(C)CC[C@@H]4[C@@]6(C)CC[C@H](O)[C@H](O)[C@@H]6[C@@H](O)C[C@]45O)C(C)C)[C@H](O)[C@H]3O)[C@H](O)[C@H]2OC)OC[C@H]1O , please?
10 µg

Could you do the same for CO[C@H]1[C@H](O[C@H]2CC[C@]3(C)C4=CC[C@]5(C)[C@@H]([C@H](C)CC[C@H](O)C(C)C)C[C@@H](O)[C@H]5C4=CC[C@H]3C2)OC[C@@H](O)[C@@H]1O [MONILOSIDE A] , please?
3 µg

Could you do the same for CO[C@@H]1[C@@H](O)[C@H](O[C@@H]2CO[C@@H](O[C@@H]3CO[C@@H](OCC[C@@H](CC[C@@H](C)[C@H]4[C@@H](O)[C@@H](O)[C@@H]5[C@]4(C)CC[C@@H]4[C@@]6(C)CC[C@H](O)[C@H](O)[C@@H]6[C@@H](O)C[C@]45O)C(C)C)[C@H](O)[C@H]3O)[C@H](O)[C@H]2OC)OC[C@H]1O [MONILOSIDE G] , please?
10 µg

Could you do the same for CO[C@@H]1[C@@H](O)[C@H](OCC[C@@H](/C=C/[C@@H](C)[C@H]2[C@@H](O)[C@@H](O)[C@@H]3[C@]2(C)CC[C@@H]2[C@@]4(C)CC[C@H](O)[C@H](O)[C@@H]4[C@@H](O)C[C@]23O)C(C)C)OC[C@H]1O[C@@H]1OC[C@H](O)[C@H](O)[C@H]1O [MONILOSIDE F] , please?
10 µg
